These data points were gathered from patent US9926282B2.

So I've got a bunch of molecules here, and I need their IC50 values.
- EXPERIMENTAL_TARGET: ROCK1 (Homo sapiens (Human), UniProt Q13464)
- Sequence (Q13464 whole entry, species assumed): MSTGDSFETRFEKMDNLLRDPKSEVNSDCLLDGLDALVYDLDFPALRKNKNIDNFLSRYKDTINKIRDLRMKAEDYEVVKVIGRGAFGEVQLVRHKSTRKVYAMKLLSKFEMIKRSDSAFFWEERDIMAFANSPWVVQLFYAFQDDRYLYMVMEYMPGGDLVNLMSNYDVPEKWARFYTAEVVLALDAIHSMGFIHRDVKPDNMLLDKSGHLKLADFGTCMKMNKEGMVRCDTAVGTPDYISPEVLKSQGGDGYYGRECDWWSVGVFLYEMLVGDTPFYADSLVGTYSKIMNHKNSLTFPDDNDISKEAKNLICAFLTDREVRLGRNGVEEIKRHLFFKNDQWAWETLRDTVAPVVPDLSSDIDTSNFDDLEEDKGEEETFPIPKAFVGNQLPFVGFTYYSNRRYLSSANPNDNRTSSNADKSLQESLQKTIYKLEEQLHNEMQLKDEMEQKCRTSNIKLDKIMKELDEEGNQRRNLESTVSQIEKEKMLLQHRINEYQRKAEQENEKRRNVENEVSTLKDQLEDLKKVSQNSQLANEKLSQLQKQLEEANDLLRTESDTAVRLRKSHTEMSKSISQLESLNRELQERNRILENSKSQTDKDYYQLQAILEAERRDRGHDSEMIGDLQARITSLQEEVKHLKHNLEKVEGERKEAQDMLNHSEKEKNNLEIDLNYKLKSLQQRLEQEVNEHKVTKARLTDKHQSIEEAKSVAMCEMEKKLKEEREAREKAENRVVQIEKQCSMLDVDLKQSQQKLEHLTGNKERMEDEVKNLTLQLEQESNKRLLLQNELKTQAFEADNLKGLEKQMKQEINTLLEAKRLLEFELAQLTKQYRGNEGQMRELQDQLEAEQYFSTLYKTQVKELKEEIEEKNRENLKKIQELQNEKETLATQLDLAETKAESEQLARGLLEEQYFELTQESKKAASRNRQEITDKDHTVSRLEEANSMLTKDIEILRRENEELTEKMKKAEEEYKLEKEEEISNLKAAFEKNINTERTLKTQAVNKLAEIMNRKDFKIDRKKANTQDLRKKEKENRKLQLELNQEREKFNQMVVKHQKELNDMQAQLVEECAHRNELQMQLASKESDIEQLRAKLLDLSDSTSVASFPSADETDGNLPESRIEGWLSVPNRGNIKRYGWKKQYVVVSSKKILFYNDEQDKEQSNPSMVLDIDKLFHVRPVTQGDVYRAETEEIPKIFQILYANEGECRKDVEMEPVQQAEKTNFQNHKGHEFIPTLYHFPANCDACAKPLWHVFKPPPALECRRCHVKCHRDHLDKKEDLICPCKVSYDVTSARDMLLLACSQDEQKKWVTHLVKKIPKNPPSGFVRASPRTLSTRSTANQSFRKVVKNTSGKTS
- EXPERIMENTAL_DETAILS: ROCK assay (LABCHIP peptide phosphorylation), ROCK1
- Format: biochemical
- SETUP_CONDITIONS: 5 μM ATP, 1.5 μM peptide substrate; read-out: ROCK1 IC50

Query: Need IC50 of O=C(Nc1ccc(-c2n[nH]c(=O)c3ccccc23)c(CO)c1)c1nn(CC2CCOC2)c2ccc(F)cc12 (centres unmarked) , thanks.
Reply: 101 to 1000 nM

Query: Note, next up: `Cc1cc(NC(=O)Cc2ccc(-c3n[nH]c(=O)c4ccccc34)cc2)no1`
Reply: 1000 to 50000 nM

Query: Note, next up: `Cc1ccc2oc(Nc3ccc(-c4n[nH]c(=O)c5ccccc45)cc3)nc2c1`
Reply: 101 to 1000 nM

Query: Note, next up: `Cc1cc(NC(=O)c2cnn3ccccc23)ccc1-c1n[nH]c(=O)c2ccccc12`
Reply: 101 to 1000 nM

Query: Note, next up: `O=C(Nc1ccc(-c2n[nH]c(=O)c3ccccc23)cc1)c1cnn(-c2cccc(Cl)c2)c1`
Reply: 0.1 to 100 nM

Query: Note, next up: `Cc1cc(CC(=O)N2Cc3ccccc3C2)ccc1-c1c[nH]c(=O)c2ccccc12`
Reply: 101 to 1000 nM

Query: Note, next up: `Cn1ccc(C(=O)Nc2ccc(-c3n[nH]c(=O)c4ccccc34)cc2)n1`
Reply: 101 to 1000 nM

Query: Note, next up: `O=c1[nH]nc(-c2ccc(Nc3nncc4ccccc34)cc2)c2ccccc12`
Reply: 0.1 to 100 nM

* * *

- EXPERIMENTAL_TARGET: ROCK1 (Homo sapiens (Human), UniProt Q13464)
- EXPERIMENTAL_DETAILS: ROCK assay (LABCHIP peptide phosphorylation), ROCK1
- Format: biochemical
- SETUP_CONDITIONS: 5 μM ATP, 1.5 μM peptide substrate; read-out: ROCK1 IC50
Structures can show the parent of a compound that is named as a salt.
PARAMETER: IC50

Query: Need IC50 of `O=C(Nc1ccc(-c2n[nH]c(=O)c3ccccc23)cc1)c1nc2c(s1)CCCC2` , thanks.
Reply: 0.1 to 100 nM

Query: Note, next up: `O=C(Nc1ccc(-c2n[nH]c(=O)c3ccccc23)cc1)c1cnn(CCC(F)(F)F)c1`
Reply: 101 to 1000 nM

Query: Note, next up: `O=C(Cc1ccc(-c2n[nH]c(=O)c3ccccc23)cc1)N1CCN(c2ncccn2)CC1`
Reply: 1000 to 50000 nM

Query: Note, next up: `O=C(Nc1ccc(-c2n[nH]c(=O)c3ccccc23)cc1)c1cn(C2CCNCC2)nn1`
Reply: 101 to 1000 nM

Query: Note, next up: O=C(Nc1ccc(-c2n[nH]c(=O)c3ccccc23)cc1)C1Cc2cc(O)ccc2O1 (centres unmarked)
Reply: 1000 to 50000 nM

Query: Note, next up: `CN1CCN(Cc2ccc3c(c2)CN(C(=O)Cc2ccc(-c4n[nH]c(=O)c5ccccc45)cc2)C3)CC1`
Reply: 101 to 1000 nM

Query: Note, next up: O=C(Nc1ccc(-c2n[nH]c(=O)c3ccccc23)cc1)c1cnn(CC2CC2)c1 [Example 375, TFA]
Reply: 0.1 to 100 nM

Query: Note, next up: `CC(C)=Cn1nc(C(=O)Nc2ccc(-c3n[nH]c(=O)c4ccccc34)cc2)c2cc(F)ccc21`
Reply: 101 to 1000 nM
